test: yeast display, Sf9 membrane polyspecificity reagent, FACS + sequencing; frameworks hold sequencing errors

Item sequence	polyreactivity (PSR sort gate)
QVQLVESGGGLVQAGGSLRLTCAASGSTFWDNAMGWYRQAPGKERELVAAITAIGGTTYYADSVKGRFTISRDNAKNTVYLQMKSLKPEDTAVYYCAAVWSRFLISYSTGWWFEYWGQGTQVTVSS	low polyreactivity
QVHLVESGGGLVQAGGSLRLSCAASGRIFYGYAMGWYRQAPWKEREFVAAITWRGGTFYADSVKGRFTISRDNAKNTVYLQMNSLKPEDTAVYYCAARVSSYGRYDYWGQGTQVTVSS	high polyreactivity
QVHLVESGGRLVQAGGSLRLSCAASGRTVVDNAMGWYRQAPGKESQLVAAISSGGTTNFADSVKGRFTISRDIAKNTVYLQMNSLKPEDTAVFYCNTVATYLRSGYGNWGQGTQVTVSS	low polyreactivity
QVQLVESGGGLVQAGGSLRLSCAASGRTFDRNAMGWYRQAPGKERELVAAITSSGDSTYYADSVKGRFTISRDNSKNTVYLQMNSLKPEDTAVYYCAAGRRFGYWGQGTQVNVSS	high polyreactivity
QVQLVESGGGLVQAGGILRLSCAASGSNFAPYAMGWYRQSPGKERELVATISASGGTTYYADSVKGRFTISRDTAKNTVYLQMNSLKPEDTAVYYCNADSNWYYLGNYYGLNDYWGQGTQVTVSS	low polyreactivity

###

assay: yeast display, Sf9 membrane polyspecificity reagent, FACS + sequencing; frameworks hold sequencing errors
Test readout: polyreactivity (PSR sort gate)

Item sequence	Test readout	Recorded result
QVQLVESGGGLVQAGGSLRLSCAASGITIWGYTMGWYRQAPGKERELVAAITSTGSTYYADSVKGRFTISRDNAKNHVYFQMNSQKPEDTSVYYCAATRGSSDYYYWGQGTQVTVSS	polyreactivity (PSR sort gate)	low polyreactivity
QVQLVESGGGLVQAGGSLRLSCAASGRTFSLYTMGWYRQAPWKERELVASITSSGSTSYADSVKGRFTISRDNAKNTVYLQMNSLKPEDTAVYYCNAAVSYPKYPYVSPGVPSYDYWGQGTQVTVSS	polyreactivity (PSR sort gate)	low polyreactivity

###

assay: yeast display, Sf9 membrane polyspecificity reagent, FACS + sequencing; frameworks hold sequencing errors

Item sequence	polyreactivity (PSR sort gate)
QVQLVESGGGLVQAGGSLRLSCAASGSTFKVYAMGWYRQAPGKERELVAAISQSGGSTYYADSVKGRFTITRDNAKNTVYFQMKSLKPEDTAVYYCAVRTYVYHWSFSSLPYDYWGQGTQVTVSS	high polyreactivity
QVQLVESGGGLVQAGGSLRLRCAASGSTFAVYAMGWYRQAPGKERELVATIRWNGGSTYYADSVKGRFTISRDNAKNTVYLQMNSLKPEDTAVYYCAAPPIRPNLYDYWGQGTQVTVSS	high polyreactivity
QVQLVESGGGLVQAGGSLRLSCAASGRTFTPNAMGWYRQAPGKDRELVAAITSTGGRTYYADSVKGRFTISRDNAKNTVYLQMNSLKPDDTAVYYCAVSYRYLRKYGYWGQGTQVTVSS	high polyreactivity
QVQLVESGGGLVQAGGSLRLSCAASGSIFVLSAMGWYRQAPGKEREFFAAITWSGDSTYYADSVKGRFTISRDNAKNTVYLQMNSLKPEDTAVYYCAAEGNTWPADFLSYYFEFDEYWGQGTQVTVSS	low polyreactivity
QDQLVESGGGIVQAGGSLRLSCAASGSTFDFNAMGWYRQAPGKERELVASISWETGGTYADSVKGRFTISRDNGKNTVYLQMKSLNPEDTAVYYCAARPDYFIFEYWGQGTQVTVSS	low polyreactivity

###

assay: yeast display, Sf9 membrane polyspecificity reagent, FACS + sequencing; frameworks hold sequencing errors

Item sequence	polyreactivity (PSR sort gate)
QVQLVESGGGLVQAGGSLRLSCAASGSISPYNAMGWYRQAPGKERELVAAISSGGRTYYADSVKGRFTISRDNAKNTVYLQMNSLKPEDTAVYYCARGYWRVYGYSFWYTPEVGYWGQGTQVTVSS	high polyreactivity
QVQLVESGGGLVQAGGSLRLSCAASGFTFVPYAMGWYRQAPGKERELVAAISSTGGSTYYADSVKGRFTISRDNAKNTVYLQMNSLKPEDTAVYYCAAKITRRYYPGYLFDSWGQGTQVTVSS	high polyreactivity
QVQLVESGGGLVQAGGSLRLSCAASGRIFWDYGMGWYRQAPGKERELVAVITWGGGSTYYADSVKGRFTISRDNAKNTVYLQMNSLKPEDTAVYYCAKEYHYYYWGQGTQVTVSS	low polyreactivity
QVQLVESGGGLVQAGGSLRLSCAASGRIFYTYAMGWYRQAPGKASELVAAITYRGGSTYYADSVKGRFTISRDIAKNTVYLQMNSLKPADTAVYYCAARPGRGPDSRWRYKYDYWGQGTQVTVSS	high polyreactivity
QVQLVESGGGLVQAGGSLRLSCAASGFIIGSYTMGWYRQAPGKERELVASITKRGGSTYYADSVKGRFTISRDNAKNTVYFQMNSLKPEDTAVYYCAATYWFSHRSRYDYWGQGTQVTVSS	high polyreactivity
QVQLVESGGGLVQAGGSLRLSCAASGITFIPNAMGWYRQAPGKERELVAAISISGGRTYYADSVKGRFTISRDNAKNTVYLQMNSLKPEVTAVYYCAVDSWSRVQGWLAHNYDYWGQGTQVTVSS	low polyreactivity
QVQLVESGGGLVQSGGSLRLSCAASGIIFEYYDMGWYRQAPGKEREFVAAIDSGGSTYYADSVKGRFTISRDNAKNTVYLQMNSLKPEDTAVYYCAASRPPNTSNTGYGSWGQGTQVTVSS	low polyreactivity
QVQVVESGGGLVQAGGSLRLSCAASGRIFYVYAMGWYRQAPGKERELVAAITISGGSTYYADSVKGRFTISRDNAKNTVYLQMNSLKPEDTAVYYCATDRSSHWYDYWGQGTQVTVSS	low polyreactivity
QVQLEESGGGLVQAGGSLRLSCAASGRTFSRNAMGWYIQAPGKERELVAAISQRGVSTYYADSVKGRFTISRDNAMNTVYLQMNSLKPEDTAVYYCNTRGTYRYDYWGQGTQVTVSS	low polyreactivity
QVQLVESGGGLVQAGGSHRLSCAASGFTFTYYAMGWYRQAPGKERELVADITSGGGTNYADSVKGRFTISRDNAKNTVFLQMNSLKPEDTAVYYCAADAYHQGMDYWGQGTQVTVSS	low polyreactivity
QVQLVESGGGLVQAGGSLRLSCAASGSIFYYNAMGWYRQAPGKERELVAAISSSGGSTYYADSVKGRFTISRDNAKNTVYLQMNSLKPEDTAVYYCAAKLRHWAHHTKYDYWGQGTQVSVSS	low polyreactivity

###

assay: yeast display, Sf9 membrane polyspecificity reagent, FACS + sequencing; frameworks hold sequencing errors
Test readout: polyreactivity (PSR sort gate)

Item sequence	Test readout	Recorded result
QVQLVESGGCLVQAGGSLRLSCAASGRIFGSYAMGWYRHPPGKERELVAAISGSGGRTYYADSVKGRFTISRDNAKNTVYLQMNSLKPEDTAVYYCAADSQSFGYGYWGQGTQVTVSS	polyreactivity (PSR sort gate)	high polyreactivity
QVQLVESGGGLVQAGGSLRLSCAASGFTFYYYAMGWYRQAPGKERELVAAISYSGGSTYYADSVKGRFTISRDNAKNTVYLQMNSLKPEDTAVYYCAALYTGESGYWGQGTQVTVSS	polyreactivity (PSR sort gate)	high polyreactivity
QVQLVESGGGLVQAGGSLRLSCAASGYIFGQNAMGWYRPAPRKERELVASISDGGSTYYADSVKGRFTISRDNAKNTVYLQMNSLKPEDTAVYYCAAGQYWGEKALGAWLFDYWGQGTQLTVSS	polyreactivity (PSR sort gate)	low polyreactivity
QVQLVESGGGLVQAGGSLRLSCAASGLIFPYYALGWYRQAPGKERELVAAISWRGGNTYYADSVKGRFTISRDNAKNTVYLQMNSLKPEDTAVYYCNTVQYRNEMGYWGQGTQVTVSS	polyreactivity (PSR sort gate)	high polyreactivity
QVQLVESGGGLVPAGGSLRLSCAASGFIFQWYAMGWYRQAPGKERELVAAISSSGGSTYYADSVKGRFTISRDNAKNTVYLQMNSLKPEDTAVYYCAAVWASYPYRGVDYWGQGTQVTVSS	polyreactivity (PSR sort gate)	high polyreactivity
QVQLVESGGGLVQAGGSLRLSCAASGYTLFRNAMGWYRQAPGKERELVAAISRSGARTYYADSVKGRFTISRDNAKTTVYLQMNSLKPDYTAVYYCAAVIKWTKDDYWGQGTQVTVSS	polyreactivity (PSR sort gate)	high polyreactivity
QVQLVESGGGLVQAGGSLRFSCAASGITFKGYAMGWYRQAPGKERELVAAINSRGGTYADSVKGRFTISRDNAKNTVYLQMNSLKPEDTAVYYCAVTAVRPLPLDSGYDYWGQGTQVTVSS	polyreactivity (PSR sort gate)	low polyreactivity
QVQLVESGGGLVQAGGILRLSCAASGLIFITYAMGWYRQAPGKERELVATITLRGGSTYYADSVKGRFTISRDNAKNTVYLQMNSLKPEDTAVYYCAADVGYWGRSRGYPSDDYDYWGQGTQVTVSS	polyreactivity (PSR sort gate)	low polyreactivity
QVQLQESGGGLMQAGGSQRLSCAASGSISYYSDMAWYRQAPGKEREFVAGIGYGTSTNYADSVKGRFTTSRDNAKNTVYLQMISMKPEDTAVYYCAAYQGNGYEFYYWGQGTQVTVRS	polyreactivity (PSR sort gate)	low polyreactivity
QVQLVESGGGLVQAGGSLRLSCAASGRTFKRYAMGWYRQAPGNERELVAAIRRGGITNYADSVKGRFTISRDNAKNTVYLQMNSLKPEDTAVYYCAKDGVTYPYSYEYDYWGLGTQVTVSS	polyreactivity (PSR sort gate)	low polyreactivity
QVQLVESGGGLVQAGGSLRLSCAASGSTFTINFMGWYRQAPGKERELVAAINGGGRTNYADSVKGRFTISRDNAKNTVYLQMNSLNPEDTAVYYCAAEWRRYEYSDSWEYDYWGQGTQVTVSS	polyreactivity (PSR sort gate)	low polyreactivity
